Values compiled from patent US20250205259A1.

biological target: IMP-1 (Serratia marcescens, UniProt P52699); experiment: Inhibitory activity on MBL, fluorescent substrate FC-5; assay type: biochemical; settings: read-out: Inhibitory activity on MBL IMP-1 (IC50 class)
Sequence (P52699 19-246 limits assumed): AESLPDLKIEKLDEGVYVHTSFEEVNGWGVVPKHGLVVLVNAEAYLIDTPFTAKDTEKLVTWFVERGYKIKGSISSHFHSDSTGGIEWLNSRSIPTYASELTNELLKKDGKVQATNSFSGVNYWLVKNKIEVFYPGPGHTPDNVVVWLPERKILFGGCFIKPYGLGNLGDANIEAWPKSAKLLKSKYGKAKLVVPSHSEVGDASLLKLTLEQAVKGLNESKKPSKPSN
IC50 values for the compounds below.

O=C(O)c1c(Cn2cccn2)ccc2c1OB(O)CC2 1 to 100 µM
Nc1ccc(-c2cn(Cc3ccc4c(c3C(=O)O)OB(O)CC4)nn2)cc1 0.01 to 1 µM
O=C(O)c1c(Cn2ccnn2)ccc2c1OB(O)CC2 1 to 100 µM
N=C(N)Nc1cnn(Cc2ccc3c(c2C(=O)O)OB(O)CC3)c1 1 to 100 µM
N=C(N)N1Cc2cnn(Cc3ccc4c(c3C(=O)O)OB(O)CC4)c2C1 1 to 100 µM

Enquiry: Which IC50 is listed for `NC1(c2cnn(Cc3ccc4c(c3C(=O)O)OB(O)CC4)c2)CC1` ?
Return: 1 to 100 µM

Enquiry: I am curious: what IC50 value has been reported for `O=C(O)c1c(CN2C[C@H](O)CC2=O)ccc2c1OB(O)CC2` ?
Return: 1 to 100 µM

Enquiry: Any idea what its IC50 is? The compound is `CO[C@H]1Cc2ccc(Cn3ccnn3)c(C(=O)O)c2OB1O`
Return: 0.01 to 1 µM

Enquiry: Item `NC(=O)c1cnn(Cc2ccc3c(c2C(=O)O)OB(O)CC3)c1` has what recorded IC50?
Return: 1 to 100 µM
